The reported numbers originate from PubChem BioAssay (Tox21).

experiment: qHTS RealTime-Glo MT Cell Viability Assay in HEK293 cells - 40 hour (AID 1224874); settings: RealTime-Glo luminescence; stronger effect = lower value; also: % is scaled to controls: 0 for no effect and ±100 for the full control effect
Records with an inconclusive call do not appear.
observation.type: max response (%)
Give bare numbers, in %.

Batch request: max response per item, same order as input.
1. OCC1CCC(CO)CC1 (stereo not drawn)
2. COc1ccc2c(c1)c1c3n2CCN(C)C3=NCC1
3. Cc1ccc(C)c([N+](=O)[O-])c1

-- reply
[6.03, 17.6, 12.1]

Batch request: max response per item, same order as input.
1. CC(C)=CCC/C(C)=C/COC=O
2. CCC(=O)c1c(O)cc(O)cc1O
3. CCN1CCCC1CN (stereo not drawn)
4. C=Cc1ccc(C(C)(C)C)cc1
5. O=C(O)CCCCCC(=O)O

-- reply
[0.565, 11.1, 9.62, -0.639, 0.774]
